# protocol text: chemical genetic growth profiling, strain panel (AID 1159580);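 further: tested at 20 µM; growth read once vehicle control cultures reached saturation at 30 °C; 1 = growth at the plate median or of vehicle wells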
# setup conditions: S. cerevisiae deletion strains, growth OD, locus YJR016C, strain ILV3, stronger effect = lower value
In all, about 5,500 compounds went through this assay and about 2,000 (36%) were called active. Not shown: some 18% with an inconclusive outcome. Some of the results follow.
This section presents compounds with their documented normalized growth values.
measurement kind: normalized growth

* N#CSCC(=O)c1ccccc1 | 0.0975
* Cc1ccc2nc(-c3ccc4c(c3)OCCO4)cn2c1 | 0.983
* C#CCSC1=NNC(c2ccccn2)S1 (stereo not drawn) | 0.596
* O=C(Nc1ccc(F)cc1F)c1cc(Cl)c(-n2cccc2)c(Cl)c1 | 0.985
* Cc1cc(/C(N)=N\OC(=O)C(C)(C)C)cc(/C(N)=N\OC(=O)C(C)(C)C)c1 | 0.993
* CSc1n[nH]c(-c2cc(C(C)(C)C)oc2C)c1C#N | 0.946
* Cc1c(C)c(C)c(C(=O)c2ccc(N=Cc3cc(Cl)cc(Cl)c3O)cc2)c(C)c1C | 0.944
* CC(=O)c1ccc(Cl)c(N=Cc2cc(Cl)cc(Cl)c2O)c1 | 0.967
* OC(COc1ccc(F)cc1)(c1ccc(Cl)cc1)c1ccc(Cl)cc1 | 0.984
* Cc1ccc(-n2cccc2)c(NS(=O)(=O)c2ccc(-c3ccno3)s2)c1 | 0.941
* CSc1sc(C(=O)Sc2ccccc2)cc1S(=O)(=O)C(C)C | 0.988
* Clc1ccc(SCc2ccsc2-c2ncns2)cc1 | 0.977
* O=C1c2cccc3c(Sc4ccccc4)ccc(c23)C(=O)N1NCCO | 0.921
* Cc1nn(-c2cccc(Cl)c2)c2oc(=O)cc(C(F)(F)F)c12 | 0.976
* CCOC(=O)/C(C#N)=C(\Nc1ccc(C(=O)OCC)cc1)SC | 0.99
* O=S(=O)(Oc1ccc(-c2csnn2)cc1)c1ccccc1Cl | 0.978
* Cc1onc(-c2c(Cl)cccc2Cl)c1C(=O)O/N=C(/N)Cc1ccc(C(C)(C)C)cc1 | 0.992
* CC(C)(C)c1cc(C(=O)Nc2ccc3c(c2)OCO3)n(Cc2ccc(F)cc2)n1 | 0.981
* Clc1ccc(CN2CCN(c3cccc4[nH]ccc34)CC2)cc1Cl | 0.993
* CCOC(=O)c1ccc(Cl)c(N=Cc2cc(Cl)cc(Cl)c2O)c1 | 0.956
* O=C(NOC(=O)c1ccccc1)c1ccccc1 | 0.0894
* NC(=S)N/N=C1/CCCc2ccccc21 | 0.896
* COc1c(Br)csc1C(=O)O/N=C(/N)c1cc(C(F)(F)F)cc(C(F)(F)F)c1 | 0.979

###

# protocol text: chemical genetic growth profiling, strain panel (AID 1159580);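 further: tested at 20 µM; growth read once vehicle control cultures reached saturation at 30 °C; 1 = growth at the plate median or of vehicle wells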
# setup conditions: S. cerevisiae deletion strains, growth OD, locus YKL085W, strain MDH1 (second series), stronger effect = lower value
Screen size: about 5,500 compounds; about 2,000 (36%) were called active. Not shown: some 18% with an inconclusive outcome. This is one part of the list.
This section presents molecules with their documented normalized growth values.
measurement kind: normalized growth

- Oc1c(Cl)cc(Cl)cc1Sc1cc(Cl)cc(Cl)c1O: 0.973
- CC(C)=CC1C(C(=O)O)C1(C)C (stereo not drawn): 0.971
- CCN(CC)CCOC(=O)C1(C2CCCCC2)CCCCC1: 0.963
- CN(C)[C@@H]1C(=O)C(C(N)=O)=C(O)[C@@]2(O)C(=O)C3=C(O)c4c(O)ccc(Cl)c4[C@@H](O)[C@H]3C[C@@H]12: 0.975
- CC(C)CC1NC(=O)CNC1=O (stereo not drawn): 1.02
- CC(CCC(=O)O)[C@H]1CCC2C3CC[C@@H]4CC(=O)CC[C@]4(C)C3C=C[C@@]21C (stereo partly drawn): 1.03
- C[C@H]1c2cccc(O)c2C(O)=C2C(=O)[C@]3(O)C(O)=C(C(N)=O)C(=O)[C@@H](N(C)C)[C@@H]3[C@@H](O)[C@@H]21: 0.972
- CC(C)c1ccc2c(c1)CCC1C(C)(C(N)=O)CCCC21C (stereo not drawn): 0.944
- CC1=CC(=O)c2ccccc2C1=O: 0.494
- C=C1c2cccc(O)c2C(O)=C2C(=O)[C@]3(O)C(O)=C(C(N)=O)C(=O)[C@@H](N(C)C)[C@@H]3[C@@H](O)[C@H]12: 0.978
- CC(N=C(NC#N)Nc1ccncc1)C(C)(C)C (stereo not drawn): 1.01
- Nc1ccc(S(=O)(=O)NC(=O)c2ccccc2)cc1: 1
- COc1ccccc1OCC(O)CO (stereo not drawn): 0.999
- O=C(O)C1=CCCNC1: 0.973
- CCN(CC)CCOC(=O)C(c1ccccc1)C1CCCCC1 (stereo not drawn): 0.97
- CN(C)C(=O)Oc1cccc([N+](C)(C)C)c1: 0.985
- O=C(NCO)c1cccnc1: 1
- CC(C)=CCc1c2c(c3occ(-c4ccc(O)c(O)c4)c(=O)c3c1O)C=CC(C)(C)O2: 0.947
- CN(C)[C@@H]1C(=O)C(C(N)=O)=C(O)[C@@]2(O)C(=O)C3=C(O)c4c(O)cccc4[C@@](C)(O)[C@H]3[C@H](O)[C@@H]12: 0.999
- NC(=O)NC(=O)Cc1ccccc1: 0.994
- O=C(O)c1ccc(S(=O)(=O)N(Cl)Cl)cc1: 1.01
- NCC(=O)c1ccccc1: 0.988
- Cc1ccc2c(c1)C1(C)CCCC(C)(C(=O)O)C1CC2 (stereo not drawn): 0.997

###

This section presents molecules with their documented normalized growth values.
# protocol text: chemical genetic growth profiling, strain panel (AID 1159580);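 further: tested at 20 µM; growth read once vehicle control cultures reached saturation at 30 °C; 1 = growth at the plate median or of vehicle wells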
# setup conditions: S. cerevisiae deletion strains, growth OD, locus YIL147C, strain SLN1, stronger effect = lower value
Among all 5,500 compounds or so, about 2,000 (36%) were called active. Roughly 18% stayed inconclusive and do not appear here. The list shows a part of the results.
measurement kind: normalized growth

• CCOC(=O)c1ccc(Cl)c(N=Cc2cc(Cl)cc(Cl)c2O)c1 = 0.946 (inactive)
• Cc1ccc2nc(-c3ccc4c(c3)OCCO4)cn2c1 = 0.983 (inactive)
• O=S(=O)(Nc1ccccc1Oc1ccccc1)c1ccc(-c2ccno2)s1 = 0.969 (inactive)
• CC(=O)c1ccc(Cl)c(N=Cc2cc(Br)cc(Br)c2O)c1 = 0.104 (active)
• Clc1ccc(CN2CCN(c3cccc4[nH]ccc34)CC2)cc1Cl = 0.992 (inactive)
• O=C(Nc1ccc(F)cc1F)c1cc(Cl)c(-n2cccc2)c(Cl)c1 = 0.976 (inactive)
• Cc1onc(-c2c(F)cccc2Cl)c1/C(N)=N\OC(=O)c1ccc(C(C)(C)C)cc1 = 0.981 (inactive)
• OC(COc1ccc(F)cc1)(c1ccc(Cl)cc1)c1ccc(Cl)cc1 = 0.98 (inactive)
• Cc1cc(/C(N)=N\OC(=O)C(C)(C)C)cc(/C(N)=N\OC(=O)C(C)(C)C)c1 = 0.964 (inactive)
• O=[N+]([O-])c1cccc(C2CC(c3ccccc3)=Nc3ccccc3S2)c1 (centres undefined) = 0.969 (inactive)
• CC(=O)c1ccc(Cl)c(N=Cc2cc(Cl)cc(Cl)c2O)c1 = 0.926 (inactive)
• Clc1ccc(SCc2ccsc2-c2ncns2)cc1 = 0.973 (inactive)
• Cc1nn(-c2cccc(Cl)c2)c2oc(=O)cc(C(F)(F)F)c12 = 0.976 (inactive)
• O=S(=O)(Oc1ccc(-c2csnn2)cc1)c1ccccc1Cl = 0.968 (inactive)

###

# protocol text: chemical genetic growth profiling, strain panel (AID 1159580);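 further: tested at 20 µM; growth read once vehicle control cultures reached saturation at 30 °C; 1 = growth at the plate median or of vehicle wells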
# setup conditions: S. cerevisiae deletion strains, growth OD, locus YFL009W, strain cdc4
Among all 5,500 compounds or so, about 2,000 (36%) were called active. Another 18% or so got no clear call; they are omitted. No stated cut-off is given here; in the data, active means normalized growth mostly below about 0.91 (no sharp cut-off); inconclusive means no clear call, values can overlap the other calls; inactive means mostly above about 0.92. Some of the results follow.
Outcome codes: Y for active, N for inactive

* Cc1c(C)c(C)c(C(=O)c2ccc(N=Cc3cc(Cl)cc(Cl)c3O)cc2)c(C)c1C | N
* Cc1ccc2nc(-c3ccc4c(c3)OCCO4)cn2c1 | N
* CSc1n[nH]c(-c2cc(C(C)(C)C)oc2C)c1C#N | N
* Brc1ccc(-c2csc(-c3ccncc3)n2)cc1 | Y
* Clc1ccc(CN2CCN(c3cccc4[nH]ccc34)CC2)cc1Cl | N
* O=[N+]([O-])c1cccc(C2CC(c3ccccc3)=Nc3ccccc3S2)c1 (stereo unspecified) | N
* CCOC(=O)c1ccc(Cl)c(N=Cc2cc(Cl)cc(Cl)c2O)c1 | N
* CC(C)(C)c1cc(C(=O)NNc2cccc(Cl)c2)n(Cc2ccccc2)n1 | N
* O=C(NOC(=O)c1ccccc1)c1ccccc1 | Y
* NC(=S)N/N=C1/CCCc2ccccc21 | N
* O=C1c2cccc3c(Sc4ccccc4)ccc(c23)C(=O)N1NCCO | N
* Cc1nn(-c2cccc(Cl)c2)c2oc(=O)cc(C(F)(F)F)c12 | N
* N/C(Cc1cccc2ccccc12)=N/OC(=O)c1ccc(Cl)cc1 | N
* CC(=O)c1ccc(Cl)c(N=Cc2cc(Br)cc(Br)c2O)c1 | Y
* Cc1cc(/C(N)=N\OC(=O)C(C)(C)C)cc(/C(N)=N\OC(=O)C(C)(C)C)c1 | N
* CCOC(=O)/C(C#N)=C(\Nc1ccc(C(=O)OCC)cc1)SC | N
* OC(COc1ccc(F)cc1)(c1ccc(Cl)cc1)c1ccc(Cl)cc1 | N
* O=S(=O)(Nc1ccccc1Oc1ccccc1)c1ccc(-c2ccno2)s1 | N
* CC(=O)c1ccc(Cl)c(N=Cc2cc(Cl)cc(Cl)c2O)c1 | N
* Clc1ccc(SCc2ccsc2-c2ncns2)cc1 | N
* CSc1sc(C(=O)Sc2ccccc2)cc1S(=O)(=O)C(C)C | N
